experiment: Permeability in Caco-2 cells; assay type: in vitro ADME; settings: human, Caco-2, pH 7.4; 2.00 µM, 2 hours, pH 7.40±0.05

- molecule: "Cc1csc2ncnc(Nc3ccc4c(c3)ncn4C)c12 [Compound 9]"
  Papp A→B at 2 h, 2 µM: "29 ×10⁻⁶ cm/s"

###

experiment: Pharmacokinetic study in SD rats; format: in vivo; settings: rat, plasma; Oral Gavage, 10 mg/kg, male SD rats; read-out: Maximum Concentration Cmax

- input.smiles: "Cc1csc2ncnc(Nc3ccc4c(c3)ncn4C)c12"
  Cmax, ng/mL: 4770

###

assay: Pharmacokinetic study in SD rats; assay type: in vivo; details: rat, plasma; Intravenous Injection, 2 mg/kg, male SD rats; read-out: Half-Life T1/2 (converted)
reported.endpoint: half-life (min)

- input.smiles: "Cc1csc2ncnc(Nc3ccc4c(c3)ncn4C)c12"
  endpoint.result: 11

###

test: Pharmacokinetic study in SD rats; format: in vivo; conditions: rat, plasma; Intravenous Injection, 2 mg/kg, male SD rats; read-out: Apparent Volume of Distribution Vdss

- input.smiles: "Cc1csc2ncnc(Nc3ccc4c(c3)ncn4C)c12"
  readout.unit: "L/kg"
  Vd: 0.647

###

assay: Plasma stability, rat plasma; format: in vitro ADME; conditions: plasma, 37°C, printed in the Rat row

- input.smiles: "Cc1csc2ncnc(Nc3ccc4c(c3)ncn4C)c12"
  half-life at 2 µM: "> 4.82 h"

###

experiment: Pharmacokinetic study in SD rats; type: in vivo; conditions: rat, plasma; Oral Gavage, 10 mg/kg, male SD rats; read-out: Half-life T1/2 (converted)

- input.smiles: "Cc1csc2ncnc(Nc3ccc4c(c3)ncn4C)c12"
  readout.unit: "min"
  half-life: 34.2
